# log10(EC50) values compiled below
# METHOD_SUMMARY: Antiviral activity against Influenza A virus (H1N1) harboring PR8-GLuc infected in human A549 cells assessed as reduction in virus-induced cytopathic effect treated post viral infection for 1 hr by luciferase reporter gene assay
# Assay type: functional, cell-based, H1N1 subtype
# CONDITIONS: A549, 1 h
OBSERVABLE: log10(EC50) (log10 of the value in nM)

> print(dat)
                                    compound  endpoint.value
 1  O=C(O)[C@H]1C2CCC(C3CC32)[C@@H]1Nc1nc(-c2c[nH]c3ncc(F)cc23)ncc1F (some centres not stated)            1.70
 2  O=C(O)[C@H]1C2C=CC(CC2)[C@@H]1Nc1nc(-c2n[nH]c3ncc(F)cc23)ncc1F (some centres not stated)            1.20
 3  O=C(O)[C@H]1C2CCC(CC2)[C@@H]1Nc1nc(-c2c[nH]c3ncc(F)cc23)ncc1F [PIMODIVIR]            0.60
 4  O=C(O)[C@H]1C2C=CC(CC2)[C@@H]1Nc1nc(-c2n[nH]c3ncc(F)cc23)nc2sccc12 (some centres not stated)            1.08
 5  O=C(O)[C@H]1C2C=CC(CC2)[C@@H]1Nc1nc(-c2c[nH]c3ncc(F)cc23)nc2sccc12 (some centres not stated)            0.81
 6  O=C(O)[C@H]1C2C=CC(CC2)[C@@H]1Nc1cc2nncn2c(-c2c[nH]c3ncc(F)cc23)n1 (some centres not stated)            2.83
 7  O=C(O)[C@H]1C2C=CC(CC2)[C@@H]1Nc1nc(-c2c[nH]c3ncc(F)cc23)ncc1F (some centres not stated)            0.85
 8  Cc1csc2c(N[C@H]3C4C=CC(CC4)[C@@H]3C(=O)O)nc(-c3c[nH]c4ncc(F)cc34)nc12 (some centres not stated)            1.46
 9  O=C(O)C12CC3CC(CC(Nc4nc(-c5c[nH]c6ncc(F)cc56)ncc4F)(C3)C1)C2            2.98
10  O=C(O)[C@H]1C2C=CC(C2)[C@@H]1Nc1nc(-c2c[nH]c3ncc(F)cc23)ncc1F (some centres not stated)            1.70
11  O=C(O)[C@H]1C2C=CC(CC2)[C@@H]1Nc1nc(-c2c[nH]c3ncc(F)cc23)nc2ccsc12 (some centres not stated)            1.23
12  O=C(O)[C@H]1C2C=CC(CC2)[C@@H]1Nc1nc(-c2n[nH]c3ncc(F)cc23)nc2ccsc12 (some centres not stated)            1.62
13  Cc1cc2nc(-c3c[nH]c4ncc(F)cc34)nc(N[C@H]3C4C=CC(CC4)[C@@H]3C(=O)O)c2s1 (some centres not stated)            1.43
14  Cn1cnc2c(N[C@H]3C4C=CC(CC4)[C@@H]3C(=O)O)nc(-c3c[nH]c4ncc(F)cc34)nc21 (some centres not stated)            2.60
